Listing of Ki toward Vasopressin V1b receptor (Homo sapiens, UniProt P47901), each taken from a published source.

[
  {
    "compound": "CC(C)NC(=O)Cn1c(-c2cccc(Cl)c2)nc2ccc([C@H]3C[C@@H](CN4CCSCC4)C3)cc2c1=O",
    "Ki": "< 1 nM"
  }
]

Query for Vasopressin V1b receptor (Homo sapiens, UniProt P47901): what Ki does the record show for COc1ccc(S(=O)(=O)n2c(=O)n(C(C(=O)N3CCC(N4CCN(C)CC4)CC3)c3ccccc3)c3ccccc32)c(OC)c1 (centres unmarked) ?
500 to 10000 nM

Also CCOc1ccc(OC)cc1C1(N2CC3(CN(C4CCN(C)CC4)C3)C2)C(=O)N(S(=O)(=O)c2cccc3cccnc23)c2ccc(C#N)cc21 (racemic) ?
10 to 100 nM
